Reference source: patent US20260297042A1

systemTested: WEE1 (Homo sapiens)
Construct: purchased Thermo Fisher PR7373A
method: Selectivity versus WEE1 assay (ADP-Glo enzymatic assay)
Assay type: biochemical
measurementParameters: ADP-Glo; 15 nM WEE1, 60 minutes at 26° C.; banded
pIC50: −log10 of the molar value.
Would you mind telling me the reported pIC50 of each entry?

Query string: Complete the entry with pIC50 for Cc1ccc(O)c(C)c1NC(=O)c1cnc(NCc2cccnc2)s1 [BAA-345]
Result string: < 4.96

Query string: Complete the entry with pIC50 for Cc1ccc(O)c(C)c1NC(=O)c1cnc(Nc2ccn(CC(=O)N3CCC4(CCNC4)CC3)n2)s1 [BAA-225]
Result string: < 4.96

Query string: Complete the entry with pIC50 for CCN(CC)C(=O)Cn1cc(C)c(Nc2ncc(C(=O)Nc3c(C)ccc(O)c3C)s2)n1 [BAA-207]
Result string: 4.96 to 6.00

Query string: Complete the entry with pIC50 for Cc1ccc(O)c(C)c1NC(=O)c1cnc(Nc2cccc(N(C)C(=O)c3c(F)cc(F)cc3F)n2)s1 [BAA-325]
Result string: < 4.96

Query string: Complete the entry with pIC50 for Cc1cn(-c2ccncc2)nc1Nc1ncc(C(=O)Nc2c(C)ccc(O)c2C)s1 [BAA-372]
Result string: 6.00 to 7.30

Query string: Complete the entry with pIC50 for Cc1cn(-c2cnn(C(C)C)c2)nc1Nc1ncc(C(=O)Nc2c(C)ccc(O)c2C)s1 [BAA-391]
Result string: 4.96 to 6.00

Query string: Complete the entry with pIC50 for Cc1ccc(O)c(C)c1NC(=O)c1cnc(Nc2ccn(CC(=O)N3CCN(S(C)(=O)=O)CC3)n2)s1 [BAA-142]
Result string: < 4.96

Query string: Complete the entry with pIC50 for Cc1ccc(O)c(C)c1NC(=O)c1cnc(N)s1 [BAA-001]
Result string: < 4.96

Query string: Complete the entry with pIC50 for Cc1ccc(O)c(C)c1NC(=O)c1cnc(Nc2ccn(CC(N)=O)n2)s1 [BAA-133]
Result string: 4.96 to 6.00

Query string: Complete the entry with pIC50 for Cc1ccc(O)c(C)c1NC(=O)c1cnc(Nc2ccn(CC(=O)N3CCN(C(C)C)CC3)n2)s1 [BAA-178]
Result string: < 4.96

Query string: Complete the entry with pIC50 for Cc1ccc(O)c(C)c1NC(=O)c1cnc(Nc2ccn(CC(=O)N[C@H](C)CO)n2)s1 [BAA-164]
Result string: < 4.96

Query string: Complete the entry with pIC50 for Cc1ccc(O)c(C)c1NC(=O)c1cnc(Nc2ccn(CCN)n2)s1 [BAA-053]
Result string: 4.96 to 6.00

Query string: Complete the entry with pIC50 for Cc1ccc(O)c(C)c1NC(=O)c1cnc(Nc2ccn(CC(=O)N3CCNCC3)n2)s1 [BAA-222]
Result string: < 4.96

Query string: Complete the entry with pIC50 for Cc1csc(Nc2ncc(C(=O)Nc3c(C)ccc(O)c3C)s2)n1 [BAA-264]
Result string: < 4.96

Query string: Complete the entry with pIC50 for Cc1ccc(O)c(C)c1NC(=O)c1cnc(Nc2ccn(CC(=O)N3CCN(C4CCCC4)CC3)n2)s1 [BAA-186]
Result string: < 4.96

Query string: Complete the entry with pIC50 for Cc1ccc(O)c(C)c1NC(=O)c1cnc(Nc2nccs2)s1 [BAA-257]
Result string: < 4.96

Query string: Complete the entry with pIC50 for Cc1ccc(O)c(C)c1NC(=O)c1sc(Nc2ccn(C)n2)nc1N [BAA-219]
Result string: 4.96 to 6.00

Query string: Complete the entry with pIC50 for Cc1ccc(O)c(C)c1NC(=O)c1cnc(Nc2cc(C)n(CC(=O)N3CCCC3)n2)s1 [BAA-203]
Result string: < 4.96

Query string: Complete the entry with pIC50 for CCNC(=O)Cn1nc(Nc2ncc(C(=O)Nc3c(C)ccc(O)c3C)s2)cc1C [BAA-202]
Result string: < 4.96

Query string: Complete the entry with pIC50 for Cc1ccc(O)c(C)c1NC(=O)c1cnc(Nc2ccn([C@@H]3CCN(C(=O)Cc4ccc(N)cc4)C3)n2)s1 [BAA-106]
Result string: < 4.96

Query string: Complete the entry with pIC50 for Cc1cn(CC(=O)N2CC3(CCC3)C2)nc1Nc1ncc(C(=O)Nc2c(C)ccc(O)c2C)s1 [BAA-381]
Result string: 4.96 to 6.00

Query string: Complete the entry with pIC50 for Cc1ccc(O)c(C)c1NC(=O)c1cnc(Nc2cc(CO)n(C)n2)s1 [BAA-251]
Result string: 4.96 to 6.00

Query string: Complete the entry with pIC50 for Cc1ccc(O)c(C)c1NC(=O)c1cnc(Nc2sccc2C(N)=O)s1 [BAA-021]
Result string: < 4.96

Query string: Complete the entry with pIC50 for Cc1cn(S(=O)(=O)c2ccccc2)nc1Nc1ncc(C(=O)Nc2c(C)ccc(O)c2C)s1 [BAA-379]
Result string: < 4.96

Query string: Complete the entry with pIC50 for Cc1ccc(O)c(C)c1NC(=O)c1cnc(Nc2ccn(CC(=O)N3CC[C@@H](O)C3)n2)s1 [BAA-139]
Result string: < 4.96

Query string: Complete the entry with pIC50 for Cc1cn(-c2ccccc2)nc1Nc1ncc(C(=O)Nc2c(C)ccc(O)c2C)s1 [BAA-361]
Result string: < 4.96

Query string: Complete the entry with pIC50 for Cc1ccc(O)c(C)c1NC(=O)c1cnc(Nc2ncc3cc(F)ccc3n2)s1 [BAA-296]
Result string: < 4.96

Query string: Complete the entry with pIC50 for Cc1ccc(O)c(C)c1NC(=O)c1cnc(Nc2ccn(C)n2)s1 [BAA-004]
Result string: 4.96 to 6.00

Query string: Complete the entry with pIC50 for COc1ccc(CC(=O)N2CCC(CNc3ncc(C(=O)Nc4c(C)ccc(O)c4C)s3)CC2)nc1 [BAA-100]
Result string: < 4.96

Query string: Complete the entry with pIC50 for Cc1cc(Nc2ncc(C(=O)Nc3c(C)ccc(O)c3C)s2)nc(-c2ccc(F)cc2)n1 [BAA-307]
Result string: < 4.96

Query string: Complete the entry with pIC50 for CCN1CCN(C(=O)Cn2ccc(Nc3ncc(C(=O)Nc4c(C)ccc(O)c4C)s3)n2)CC1 [BAA-177]
Result string: < 4.96

Query string: Complete the entry with pIC50 for Cc1ccc(O)c(C)c1NC(=O)c1cnc(NCc2cn[nH]c2)s1 [BAA-360]
Result string: < 4.96

Query string: Complete the entry with pIC50 for Cc1ccc(NC(=O)C2CCOCC2)nc1Nc1ncc(C(=O)Nc2c(C)ccc(O)c2C)s1.Cl [BAA-331, hydrochloride]
Result string: < 4.96

Query string: Complete the entry with pIC50 for Cc1ccc(O)c(C)c1NC(=O)c1cnc(Nc2ccnn2CCN)s1 [BAA-260]
Result string: < 4.96

Query string: Complete the entry with pIC50 for Cc1ccc(O)c(C)c1NC(=O)c1cnc(Nc2ccn([C@@H]3CCOC3)n2)s1 [BAA-037]
Result string: < 4.96

* * *

systemTested: WEE1 (Homo sapiens, UniProt P30291)
Construct: purchased Thermo Fisher PR7373A
Sequence (P30291 whole entry): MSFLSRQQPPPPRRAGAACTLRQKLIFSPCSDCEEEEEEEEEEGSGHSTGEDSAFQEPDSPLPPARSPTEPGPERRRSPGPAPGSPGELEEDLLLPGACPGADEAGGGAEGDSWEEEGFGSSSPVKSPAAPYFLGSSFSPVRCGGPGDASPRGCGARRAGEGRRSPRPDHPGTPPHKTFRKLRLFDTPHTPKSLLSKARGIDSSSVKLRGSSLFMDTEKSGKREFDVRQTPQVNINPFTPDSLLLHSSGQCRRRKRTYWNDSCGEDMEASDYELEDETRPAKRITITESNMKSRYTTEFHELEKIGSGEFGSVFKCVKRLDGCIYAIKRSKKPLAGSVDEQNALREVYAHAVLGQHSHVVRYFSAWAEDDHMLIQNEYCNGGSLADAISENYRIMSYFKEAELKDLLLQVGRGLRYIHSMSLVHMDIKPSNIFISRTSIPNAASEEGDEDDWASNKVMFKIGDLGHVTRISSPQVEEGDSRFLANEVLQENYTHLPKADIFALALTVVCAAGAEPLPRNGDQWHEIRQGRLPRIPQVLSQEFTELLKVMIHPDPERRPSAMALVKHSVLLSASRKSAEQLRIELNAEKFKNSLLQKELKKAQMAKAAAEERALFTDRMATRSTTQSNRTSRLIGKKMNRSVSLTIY
method: Selectivity versus WEE1 assay (ADP-Glo enzymatic assay)
Type: biochemical
measurementParameters: fold difference in selectivity for PKMYT1 over WEE1; banded
Method: Selectivity versus WEE1 assay: Selectivity was established using the same format as outlined for PKMYT1. […] After 60 minutes the luminescence signal was read on a PHERAStar FS microplate reader (BMG Labtech). Data analysis: Data was captured and analysed within the Dotmatics Studies software module where dose response curves were generated and IC50 values determined. […]
propertyMeasured: PKMYT1 vs. WEE1 selectivity

compound: Cc1ccc(O)c(C)c1NC(=O)c1cnc(Nc2n[nH]c3ccccc23)s1
PKMYT1 vs. WEE1 selectivity: X (100-<1000 fold)

compound: Cc1ccc(O)c(C)c1NC(=O)c1cnc(Nc2cccc(N(C)C)n2)s1
PKMYT1 vs. WEE1 selectivity: X (100-<1000 fold)

compound: Cc1cn(C(CO)C(=O)N2CCCC2C(F)(F)F)nc1Nc1ncc(C(=O)Nc2c(C)ccc(O)c2C)s1 (stereo not drawn)
PKMYT1 vs. WEE1 selectivity: X (100-<1000 fold)

compound: Cc1ccccc1Nc1ncc(C(=O)Nc2c(C)ccc(O)c2C)s1
PKMYT1 vs. WEE1 selectivity: X (100-<1000 fold)

compound: Cc1ccc(O)c(C)c1NC(=O)c1cnc(Nc2n[nH]cc2Cl)s1
PKMYT1 vs. WEE1 selectivity: X (100-<1000 fold)

compound: Cc1cn(CC(=O)N(C)CCS(C)(=O)=O)nc1Nc1ncc(C(=O)Nc2c(C)ccc(O)c2C)s1
PKMYT1 vs. WEE1 selectivity: X (100-<1000 fold)

compound: Cc1ccc(O)c(C)c1NC(=O)c1cnc(Nc2ccccc2C2CC2)s1
PKMYT1 vs. WEE1 selectivity: X (100-<1000 fold)

Query string: Complete the entry with PKMYT1 vs. WEE1 selectivity for Cc1ccc(O)c(C)c1NC(=O)c1cnc(Nc2nc3ccccc3s2)s1
Result string: X (100-<1000 fold)
